Test: Tmax in golden hamster at 50 mg/kg, po
Format: ADME, organism-based, Mesocricetus auratus
Details: in vivo
readout: Tmax

### Prompt Quick one: Tmax for O=C(Nc1cc(-c2ccccn2)n[nH]1)N1CCN(c2ccc(F)cc2)CC1 ?
### Response 1.33 h

* * *

Test: Cmax in golden hamster at 50 mg/kg, po
Type: ADME, organism-based, Mesocricetus auratus
Design: dose 50 mg/kg, route oral
Conditions: in vivo
readout: Cmax (ng/mL)
Give a bare numeral; the unit ng/mL is implied.

### Prompt Quick one: Cmax for O=C(Nc1cc(-c2ccccn2)n[nH]1)N1CCN(c2ccc(F)cc2)CC1 ?
### Response 5680

* * *

Assay: AUC (0 to 24 hrs) in golden hamster at 50 mg/kg, po
Format: ADME, organism-based, Mesocricetus auratus
Design: dose 50 mg/kg, time < 24 hr, route oral
Details: in vivo
readout: AUC(0-t) at 24 h (ng·h/mL)
Give a bare numeral; the unit ng·h/mL is implied.

### Prompt Quick one: AUC(0-t) at 24 h for O=C(Nc1cc(-c2ccccn2)n[nH]1)N1CCN(c2ccc(F)cc2)CC1 ?
### Response 25400
